A collection of variants and their measured abundance fitness
B1: Transcriptional repressor p66-beta, residues 415 to 455; numbered along this chain, Q8WXI9 (parent)
chain: VEPFVCAQCRTDFTPHWKQEKNGKILCEQCMTSNQKKALKA

- Variants of: B1
- assayInfo: abundance fitness (aPCA) (normalised: wild type 0, dead -1); higher = more abundant; growth selection in yeast, the domain comes from the species named
- conditions: Homo sapiens

{"columns": ["mutationNotation", "abundance fitness"],
 "data": [
  ["Q29H", 0.333],
  ["M31S", -0.042],
  ["G23T", 0.045],
  ["P3V", -0.057],
  ["L39Y", 0.577],
  ["L39H", -0.078],
  ["C6W", -0.955],
  ["Q35V", -0.339],
  ["Q35R", -0.197],
  ["K37I", -0.092],
  ["A7K", 0.09],
  ["I25R", -0.168],
  ["K18Y", -0.447],
  ["T14K", -0.014],
  ["K40W", -0.393],
  ["C6N", -0.317],
  ["S33R", -0.122],
  ["A41E", -0.02],
  ["K40A", -0.025],
  ["C9H", 0.389],
  ["D12V", 0.312],
  ["R10E", 0.27],
  ["L26V", -0.196],
  ["F13L", -0.179],
  ["K24M", -0.082],
  ["K36V", -0.277],
  ["E20L", -0.254],
  ["K36W", -0.256],
  ["K40H", -0.125],
  ["W17T", 0.564],
  ["Q8Y", 0.428],
  ["Q19R", -0.029],
  ["C27G", -1.05],
  ["V1R", -0.054],
  ["E20I", 0.391],
  ["E2L", -0.469],
  ["K37L", -0.036],
  ["I25C", -0.192],
  ["E2S", -0.074],
  ["T11G", 0.354],
  ["H16S", -0.084],
  ["T32V", -0.127],
  ["E2Q", -0.297],
  ["N22K", 0.066],
  ["P15A", -0.011],
  ["M31L", -0.274],
  ["V5P", -0.29],
  ["A7W", -0.223],
  ["S33T", -0.01],
  ["K36N", 0.14],
  ["W17E", 0.196],
  ["C27S", -0.739],
  ["M31W", -0.041],
  ["K36D", -0.239],
  ["L39K", -0.015],
  ["A38L", -0.053],
  ["N34P", -0.257],
  ["W17P", -0.135],
  ["K37N", -0.226],
  ["T14M", -0.527],
  ["H16I", -0.073],
  ["F13D", -0.21],
  ["F4R", -0.19],
  ["K37V", -0.035],
  ["R10V", 0.703],
  ["K18S", 0.021],
  ["K24E", 0.17],
  ["N34R", -0.179],
  ["G23W", -0.392],
  ["D12Q", -0.208],
  ["E28W", -0.307],
  ["C9P", -0.049],
  ["C27Q", -0.79],
  ["Q8R", 0.843],
  ["N22Y", 0.19],
  ["P15G", -0.048],
  ["T14C", -0.145],
  ["I25W", -0.287],
  ["C30A", -0.488],
  ["N34G", -0.156],
  ["E2T", 0.056],
  ["S33V", -0.104],
  ["L26F", 0.003]
]}

Values from the Human Domainome abundance scans (Beltran et al. 2025)
